Catalogue of compounds with associated melting point

{"columns": ["compound", "melting point [°C]"],
 "data": [
  ["C[C@H](O)C(=O)O", 53],
  ["O=C(C1=NN(c2ccccc2)C2C(=O)N(c3ccc(F)cc3)C(=O)C12)c1ccccc1 (centres undefined)", 211],
  ["c1ccc(Oc2ccccc2-c2ccccc2)cc1", 49],
  ["O=C(C(C(F)(F)F)C(F)(F)F)N(Cc1ccccc1)Cc1ccccc1", 76],
  ["CC(C)(C)OC(=O)N[C@H](CC(=O)O)Cc1ccccc1", 104],
  ["N=C(N)NC(=N)N", 136],
  ["COc1ccc(O)c(C(C)=O)c1", 49],
  ["O=S(=O)(Cl)c1c(Cl)sc(Cl)c1Br", 69],
  ["Ic1ccc2[nH]ccc2c1", 99],
  ["O=[N+]([O-])c1ccc(NN=C(Cc2ccccc2)C(Cc2ccccc2)=NNc2ccc([N+](=O)[O-])cc2)cc1", 276],
  ["Clc1cc2oc3c(Cl)cc(Cl)c(Cl)c3c2cc1Cl", 237],
  ["Cc1cc(C)c2c(c1)OC(=O)C2", 105],
  ["O=C1OC(OC2OC(=O)C(Cl)=C2Cl)C(Cl)=C1Cl (centres undefined)", 142],
  ["CC(=O)N=c1sc(S(N)(=O)=O)nn1C", 214],
  ["CC(=O)Nc1ccc(C(C)=O)cc1", 169],
  ["CC(=O)CCC(C)C", -74]
]}

---

{"columns": ["chem_smiles", "melting point, °C"],
 "data": [
  ["O=C(Oc1ccccc1)n1c(C(F)(F)F)nc2cc(Cl)c(Cl)cc21", 103],
  ["NC(=O)C1CC1", 124],
  ["COc1ccc(C(=O)C=CC(=O)O)cc1", 139],
  ["N=C(c1ccccc1)c1ccccc1", -30],
  ["O=C1C=C(O)C(=O)C=C1O", 220],
  ["CCCCC(c1ccccc1)c1ccccc1", -12],
  ["COc1ccc(C(=O)c2noc(-c3ccccc3)c2S(=O)(=O)c2ccccc2)cc1", 161],
  ["Cc1ccc2c(-c3ccccc3)nc(=O)n(C(C)C)c2c1", 138]
]}

---

// assign MET if melting point falls strictly below 90 °C, else NOT MET (ties count as NOT MET)

{"columns": ["compound", "cat"],
 "data": [
  ["Brc1noc2ncccc12", "NOT MET"],
  ["O=C(O)c1ccc(C2CCCCC2)cc1", "NOT MET"],
  ["CCOC(=O)C(Cl)Cc1cc(-n2nc(C)n(C(F)F)c2=O)c(F)cc1Cl (stereo unspecified)", "MET"],
  ["CC(C)OC(=O)c1cc(-c2nn(C)c(C(F)(F)F)c2Br)c(F)cc1Cl", "MET"],
  ["ClC(Cl)(Cl)c1ccc(C(Cl)(Cl)Cl)cc1", "NOT MET"],
  ["CCc1nn(C)c(C(=O)NCc2ccc(C(C)(C)C)cc2)c1Cl", "MET"],
  ["CN(CCCN1c2ccccc2CCc2ccccc21)CC(=O)c1ccc(Cl)cc1", "NOT MET"],
  ["COC(=O)c1c(C)[nH]c(C)c1C=O", "NOT MET"],
  ["CC1CCCC(C)C1C (stereo unspecified)", "MET"],
  ["Cc1cccc(C(C)(C)C)c1O", "MET"],
  ["O=C1OCCC1N(C(=O)C1CC1)c1cccc(Cl)c1 (stereo unspecified)", "NOT MET"],
  ["COc1cc(C)c(Cl)cc1S(N)(=O)=O", "NOT MET"],
  ["NC(=O)CN(CC(=O)O)CC(=O)O", "NOT MET"],
  ["Cc1ccc(C(c2ccc(C(c3ccc(C)o3)c3ccc(C)o3)cc2)c2ccc(C)o2)o1", "NOT MET"],
  ["FC(F)(F)CCBr", "MET"]
]}
